Assay: Inhibitory concentration against HIV-1 replication by interfering with virus reverse transcriptase
pIC50: −log10 of the molar value.
Entries get a class label from measured pIC50. See ranges: low interval: < 5; middle interval: ≥ 5 and < 7; high interval: ≥ 7

Compound | Group
CC(C)=CCN1Cc2cc(Cl)cc3[nH]c(=S)n(c23)C[C@@H]1C | high interval
C=C(C)CN1Cc2cc(Cl)cc3[nH]c(=S)n(c23)C(C)C1 (stereo unspecified) | middle interval
CC(C)=CCN1Cc2cccc3[nH]c(=O)n(c23)CC1C (stereo unspecified) | middle interval
CC(C)=CCN1[C@H](C)Cn2c(=S)[nH]c3cccc(c32)[C@@H]1C | middle interval
CC(C)=CCN1Cc2cccc3[nH]c(=O)n(c23)C(C)C1C (stereo unspecified) | low interval
C=C(C)CN1Cc2cccc3[nH]c(=O)n(c23)C(C)C1 (stereo unspecified) | low interval
CC1Cn2c(=S)[nH]c3cccc(c32)CN1CC1CC1 (stereo unspecified) | high interval

====

Assay: Inhibitory concentration against HIV-1 replication by interfering with virus reverse transcriptase
pIC50: −log10 of the molar value.
Each entry below carries its recorded pIC50.

Compound | pIC50
CC(C)=CCN1CCn2c(=S)[nH]c3ccc(Cl)c(c32)C1C (configuration not stated) | 7.92
CC(C)=CCN1[C@H](C)Cn2c(=S)[nH]c3cc(Cl)cc(c32)[C@@H]1C | 6.32
CC1C(C)n2c(=S)[nH]c3cccc(c32)CN1CC1CC1 (configuration not stated) | 4.87
CC(C)=CCN1Cc2cccc3[nH]c(=S)n(c23)C[C@@H]1C | 7.01
CC(C)=CCN1CCn2c(=O)[nH]c3cccc(c32)C1C (configuration not stated) | 4.92
C=C(C)CN1Cc2cccc3[nH]c(=O)n(c23)CC1C (configuration not stated) | 4.46
C=C(C)CN1Cc2cccc3[nH]c(=S)n(c23)CC1C (configuration not stated) | 7.59

====

Reported pIC50 values for a set of molecules
Experiment: Inhibitory concentration against HIV-1 replication by interfering with virus reverse transcriptase
pIC50: −log10 of the molar value.

Molecule | pIC50
CC(C)=CCN1CCn2c(=O)[nH]c3cc(Cl)cc(c32)C1C (centres undefined) | 6.80
CC(C)=CCN1CCn2c(=S)[nH]c3cc(Cl)cc(c32)C1 | 6.80
C=C(C)CN1Cc2cccc3[nH]c(=O)n(c23)C(C(C)C)C1 (centres undefined) | 4.90
CC(C)=CCN1CCn2c(=O)[nH]c3ccc(Cl)c(c32)C1C (centres undefined) | 6.84

Taken from BindingDB's records for doi:10.1021/jm950589q.
